Tested target: Adenosine receptor A1 (Homo sapiens, UniProt P30542)
Sequence (P30542 whole entry): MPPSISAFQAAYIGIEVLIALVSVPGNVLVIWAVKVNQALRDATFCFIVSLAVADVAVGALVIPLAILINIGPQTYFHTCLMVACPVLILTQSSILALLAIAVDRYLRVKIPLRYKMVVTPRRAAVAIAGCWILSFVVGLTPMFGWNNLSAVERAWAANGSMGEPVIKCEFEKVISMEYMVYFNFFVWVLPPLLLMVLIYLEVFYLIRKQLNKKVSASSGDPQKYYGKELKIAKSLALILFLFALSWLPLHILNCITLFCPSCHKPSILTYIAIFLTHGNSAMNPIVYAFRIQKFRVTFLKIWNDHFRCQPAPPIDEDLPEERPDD
Test description: Displacement of [3H]-DPCPX from human Adenosine A1 receptor expressed in CHO cells; ranges from 2153-2891
Format: cell-based
Result type: pKi
// pKi is dimensionless: -log10 of concentration (M)

*Q* Query pKi on Adenosine receptor A1 (Homo sapiens, UniProt P30542) for `Nc1nc2c(cnn2CCc2ccc(S(=O)(=O)N(CCO)CCO)cc2)c2nc(-c3ccco3)nn12`
*A* 5.60

----------
Tested target: Adenosine receptor A1 (Homo sapiens)
Test description: Displacement of [3H]-DPCPX binding at human Adenosine A1 receptor expressed in CHO cells; ranges from 9257-9817
Format: cell-based
Result type: pKi
// pKi is dimensionless: -log10 of concentration (M)

*Q* Can you look up the measured pKi of `Nc1nc2c(cnn2CCCc2ccc3c(c2)OC(C(=O)O)(C(=O)O)O3)c2nc(-c3ccco3)nn12` for me?
*A* 5.02
